# assay.summary: Selectivity index, ratio of Ki for sigma 2 receptor (unknown origin) to Ki for sigma 1 receptor (unknown origin)
So basically: is Ratio Ki under 20? Then label 1. Not under? Then label 0.

[[record]]
compound = "c1ccc(CC2CCN(CC3CSC4(CCCCC4)S3)CC2)cc1 (stereo not given)"
label_value = "label 1"

[[record]]
compound = "c1ccc(CN2CCN(CC3CSC4(CCCCC4)O3)CC2)cc1 (stereo not given)"
label_value = "label 0"

[[record]]
compound = "c1ccc(CN2CCN(CC3CSCS3)CC2)cc1 (stereo not given)"
label_value = "label 0"

[[record]]
compound = "c1ccc(CN2CCN(CC3COC4(CCCCC4)O3)CC2)cc1 (stereo not given)"
label_value = "label 0"


Here's the next entry for you.
Exercise: Ratio Ki under 20? Item: CC1(C)SCC(CN2CCC(Cc3ccccc3)CC2)S1 (stereo not given)
Key: label 0

---

# System: LoVo
# assay.summary: Cytotoxicity against human LoVo cells assessed as reduction in cell survival rate at 100 uM incubated for 48 to 72 hrs by MTT assay
# Assay type: toxicity, cell-based
# experimental.parameters: time 48-72 hrs
Give measured Activity for each item. Keep answers brief.
One number for each entry, in %.

[[record]]
given_smiles = "c1ccc(CC2CCN(CCOc3ccccc3)CC2)cc1"
property_name = "Activity"
obs_value = 40


Lab note: next compound to report on.
Exercise: Need Activity of c1ccc(CC2CCN(CCCOc3ccccc3)CC2)cc1 , thanks.
Key: 40

---

# assay.summary: Thermodynamic solubility of the compound in KH2PO4/NaOH buffer at pH 6.8 incubated for 24 hrs
# Type: physicochemical
# experimental.parameters: read-out: Therm_solubility
property.name: solubility thermodynamic at 24 h (µg/mL)
One number for each entry, in µg/mL.

[[record]]
given_smiles = "c1ccc(CC2CCN(CCOc3ccccc3)CC2)cc1"
obs_value = 7800


Exercise: Need solubility thermodynamic at 24 h of c1ccc(CC2CCN(CCCOc3ccccc3)CC2)cc1 , thanks.
Key: 2800

---

Give measured pKi for each item. Keep answers brief.
# test.target: Sigma intracellular receptor 2 (Homo sapiens)
# assay.summary: Displacement of [3H]DTG from sigma 2 receptor (unknown origin) assessed as inhibition constant by scintillation counting analysis
One number for each entry, as −log10 of the molar value.

[[record]]
given_smiles = "c1ccc(CC2CCN(CCCOc3ccccc3)CC2)cc1"
obs_value = 7.06


Lab note: next molecule to report on.
Exercise: Need pKi of c1ccc(CC2CCN(CCOc3ccccc3)CC2)cc1 , thanks.
Key: 7.14

---

# test.target: Sigma intracellular receptor 2 (Homo sapiens, UniProt Q5BJF2)
# Sequence (Q5BJF2 whole entry): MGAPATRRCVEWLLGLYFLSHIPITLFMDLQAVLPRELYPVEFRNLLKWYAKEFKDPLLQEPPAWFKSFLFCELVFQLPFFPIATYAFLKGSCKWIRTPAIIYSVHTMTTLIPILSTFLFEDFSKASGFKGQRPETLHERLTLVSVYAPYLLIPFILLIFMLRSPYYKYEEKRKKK
# assay.summary: Binding affinity to sigma 2 receptor (unknown origin) assessed as inhibition constant
So basically: is Ki under 40 nM? Then MET. Not under? Then NOT MET.

Known results for compounds:
[[record]]
compound = "c1ccc(CN2CCN(CC3CSC4(CCCCC4)O3)CC2)cc1 (stereo not given)"
label_value = "NOT MET"

[[record]]
compound = "c1ccc(CC2CCN(CC3CSC4(CCCCC4)S3)CC2)cc1 (stereo not given)"
label_value = "MET"

[[record]]
compound = "c1ccc(CN2CCN(CC3COC4(CCCCC4)O3)CC2)cc1 (stereo not given)"
label_value = "MET"

[[record]]
compound = "COc1ccc(CCN2CCN(CCCc3ccccc3)CC2)cc1OC [[11C]SA4503]"
label_value = "NOT MET"


Here's the next entry for you.
Exercise: Ki under 40 nM? Item: CC1(C)SCC(CN2CCC(Cc3ccccc3)CC2)S1 (stereo not given)
Key: MET
